The measurements presented in this section are drawn from ChEMBL document CHEMBL1275329.

Target: Alpha-2A adrenergic receptor (Homo sapiens, UniProt P08913)
Sequence (P08913 whole entry): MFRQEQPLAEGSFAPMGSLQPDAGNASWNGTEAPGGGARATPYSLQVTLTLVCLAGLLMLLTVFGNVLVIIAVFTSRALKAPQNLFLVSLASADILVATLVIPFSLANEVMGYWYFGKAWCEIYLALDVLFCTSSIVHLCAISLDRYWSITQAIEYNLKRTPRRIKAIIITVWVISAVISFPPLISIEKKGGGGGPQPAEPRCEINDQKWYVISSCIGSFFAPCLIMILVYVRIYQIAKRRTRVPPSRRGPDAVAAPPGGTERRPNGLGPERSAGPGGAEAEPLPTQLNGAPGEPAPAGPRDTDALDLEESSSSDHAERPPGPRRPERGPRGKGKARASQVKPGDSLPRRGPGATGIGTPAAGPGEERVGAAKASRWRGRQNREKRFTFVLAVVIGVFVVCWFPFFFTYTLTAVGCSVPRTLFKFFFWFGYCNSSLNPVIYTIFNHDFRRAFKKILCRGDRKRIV
Measurement Type: Ki
Note: state the figure and append the unit.

Answered examples (6):
CC(Oc1ccccc1C1CC1)C1=NCCN1 (racemic)    22.9 nM
C[C@@H](Oc1ccccc1C1CC1)C1=NCCN1    44.7 nM
C[C@@H](Oc1ccccc1-c1ccsc1)C1=NCCN1    166 nM
C[C@H](Oc1ccccc1-c1cccc(O)c1)C1=NCCN1    97.7 nM
C[C@H](Oc1ccccc1-c1ccsc1)C1=NCCN1    44.7 nM
C[C@@H](Oc1ccccc1-c1cccc(O)c1)C1=NCCN1    39.8 nM

In the following, a different molecule is considered.
IN: Dear colleague, I am looking for the recorded Ki of the following molecule: C[C@H](Oc1ccccc1C1CC1)C1=NCCN1
OUT: 20.9 nM

----------
Target: Alpha-2B adrenergic receptor (Homo sapiens)
Sequence (P18089 whole entry): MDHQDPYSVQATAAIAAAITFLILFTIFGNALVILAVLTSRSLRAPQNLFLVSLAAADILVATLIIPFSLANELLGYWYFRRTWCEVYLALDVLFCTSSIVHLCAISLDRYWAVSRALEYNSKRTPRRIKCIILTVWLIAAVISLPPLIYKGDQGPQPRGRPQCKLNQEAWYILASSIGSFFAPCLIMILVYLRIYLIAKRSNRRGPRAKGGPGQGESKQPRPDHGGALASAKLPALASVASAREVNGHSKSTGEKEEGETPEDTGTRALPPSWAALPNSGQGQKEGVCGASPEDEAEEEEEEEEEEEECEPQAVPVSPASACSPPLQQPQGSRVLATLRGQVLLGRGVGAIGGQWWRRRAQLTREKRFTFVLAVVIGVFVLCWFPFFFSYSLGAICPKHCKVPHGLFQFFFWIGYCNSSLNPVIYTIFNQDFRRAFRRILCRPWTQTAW
Under this convention, condition met denotes Ki strictly below 400 nM and condition not met denotes Ki at or above 400 nM.

Solved cases below.
C[C@H](Oc1ccccc1-c1cccc(O)c1)C1=NCCN1    condition not met
CC(Oc1ccccc1C1CC1)C1=NCCN1 (racemic)    condition met
C[C@@H](Oc1ccccc1-c1ccsc1)C1=NCCN1    condition not met
C[C@H](Oc1ccccc1-c1ccsc1)C1=NCCN1    condition not met
C[C@@H](Oc1ccccc1-c1cccc(O)c1)C1=NCCN1    condition met

IN: Is Ki of C[C@@H](Oc1ccccc1C1CC1)C1=NCCN1 strictly below 400 nM?
OUT: condition not met

IN: What about this molecule? C[C@H](Oc1ccccc1C1CC1)C1=NCCN1
OUT: condition met

IN: What about this molecule? C=CCc1ccccc1O[C@H](C)C1=NCCN1
OUT: condition not met
